biological target: Low molecular weight phosphotyrosine protein phosphatase (Homo sapiens) (UniProt P24666); assay: inhibition of human LMPTP-A enzyme – biochemical, fluorescence intensity, SAR follow-up (AID 686962); settings: recombinant LMPTP-A, OMFP fluorogenic substrate, 50 min
Sequence (P24666 whole entry, looked up): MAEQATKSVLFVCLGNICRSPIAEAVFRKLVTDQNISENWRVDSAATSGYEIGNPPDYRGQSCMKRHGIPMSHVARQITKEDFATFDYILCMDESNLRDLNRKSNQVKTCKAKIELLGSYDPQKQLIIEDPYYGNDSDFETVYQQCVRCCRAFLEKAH
Activity calls are given as the source filed them.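 Rule for the calls: active = IC50 at or below 20 µM in the dose response confirmation; inactive = the rest.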
Valid outcomes are listed here; reply with one: active, inactive

Record excerpt, results attached:
• Cc1ccc(-c2nc(NCc3cccnc3)c3ccccc3n2)cc1 = active
• c1ccc(-c2cc(N3CCCCC3)c3ccccc3n2)cc1 = active
• Nc1nc(N)c(Cc2ccc(Cl)cc2Cl)c(N)n1 = active
• c1ccc(-c2cc(NCCN3CCCCC3)c3ccccc3n2)cc1 = active
• O=C(OCCNc1nc(-c2ccccc2)nc2ccccc12)c1ccncc1 = inactive

Now look at this entry.
Task item: Could you kindly confirm the outcome this assay logged for `Fc1ccccc1-c1nc(NC2CCCC2)c2ccccc2n1` ?
Reply: active

----------
molecular target: Low molecular weight phosphotyrosine protein phosphatase (Homo sapiens) (UniProt P24666); assay: inhibition of human LMPTP-A enzyme – biochemical, fluorescence intensity, SAR follow-up (AID 686962); conditions: recombinant LMPTP-A, OMFP fluorogenic substrate, 50 min
The source made the active and inactive calls.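 Rule for the calls: active = IC50 at or below 20 µM in the dose response confirmation; inactive = the rest.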
Choose one outcome from this list and give only that: active, inactive

• O=C(OCCNc1nc(-c2ccccc2)nc2ccccc12)c1cccnc1 = inactive
• COc1ccccc1CNc1ncnc2ccsc12 = inactive
• Cc1ccc(-c2nc(NCCN3CCOCC3)c3ccccc3n2)cc1 = active
• c1ccc(-c2nc(NCc3cccnc3)c3ccccc3n2)cc1 = active
• Cc1cccc(-c2nc(NCCCN3CCOCC3)c3ccccc3n2)c1 = active
• CC(C)OCCCNc1nc(-c2ccccc2)nc2ccccc12 = active

// next entry
Task item: Called result for `CCc1nc(N)nc(N)c1-c1ccc(Cl)cc1`
Reply: active

----------
biological target: Low molecular weight phosphotyrosine protein phosphatase (Homo sapiens); assay: inhibition of human LMPTP-A enzyme – biochemical, fluorescence intensity, SAR follow-up (AID 686962); details: recombinant LMPTP-A, OMFP fluorogenic substrate, 50 min
Active and inactive are the calls of the source.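 How the source made its calls: active means IC50 at or below 20 µM in the dose response confirmation; inactive means the rest.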
I would appreciate it if you answered using one of these outcomes: 1 (yes) (active), 0 (no) (inactive)

Task item: Call for entry `Fc1ccccc1-c1nc(NCCCN2CCOCC2)c2ccccc2n1` :
Reply: 0 (no)

Task item: What outcome does the record of this test show for `c1ccc(-c2nc(NCCCn3ccnc3)c3ccccc3n2)cc1` ?
Reply: 1 (yes)

Task item: Look up the recorded call for `Cc1c(CCC(=O)O)c(=O)oc2c(C)c(OCc3ccccc3Cl)ccc12` in this test.
Reply: 1 (yes)

Task item: Can you look up the reported call for `Clc1cccc(Cl)c1Cn1cnc(=NCc2ccco2)c2[nH]cnc21` for me?
Reply: 1 (yes)
